Test system: APRY yeast
Test: APRY yeast challenge in YM broth with equal molar salts
Format: cell-based, Zygosaccharomyces bailii and/or Zygosaccharomyces rouxii
Details: 2.05 N salt, day 1½
endpoint.name: APRY yeast level in broth

I am curious: what APRY yeast level in broth value has been reported for N.N.O=P(O)(O)O [DAP, di-ammonium hydrogen phosphate] ?
6,000 CFUs

What about this compound? [Cl-].[Na+] [NaCl, sodium chloride]
7,000 CFUs

Same read-out for [Cl-].[K+] [KCl, potassium chloride] ?
8,000 CFUs

Next compound: Cl.N [NH4Cl, ammonium chloride]
10,000 CFUs

* * *

Exercise: state measured APRY yeast level in broth for each of the compounds provided.
Tested on: APRY yeast
Test: APRY yeast challenge in YM broth with equal molar salts
Assay type: cell-based, Zygosaccharomyces bailii and/or Zygosaccharomyces rouxii
Details: 1.03 N salt, day ½

Form field: reported APRY yeast level in broth of Cl.N [NH4Cl, ammonium chloride]
6,000 CFUs

Try this compound too: N.N.O=P(O)(O)O [DAP, di-ammonium hydrogen phosphate]
7,100 CFUs

Field entry: [Cl-].[K+] [KCl, potassium chloride]
12,300 CFUs

Please answer likewise for [Cl-].[Na+] [NaCl, sodium chloride]
6,900 CFUs

* * *

System: APRY yeast
Assay: APRY yeast challenge in YM broth with equal molar salts
Type: cell-based, Zygosaccharomyces bailii and/or Zygosaccharomyces rouxii
Conditions: 2.05 N salt, day ½
Consider the following compounds; for each one, report its APRY yeast level in broth.

Please report the recorded APRY yeast level in broth for Cl.N [NH4Cl, ammonium chloride] .
5,800 CFUs

Try this compound too: [Cl-].[Na+] [NaCl, sodium chloride]
5,100 CFUs

What about [Cl-].[K+] [KCl, potassium chloride] ?
7,900 CFUs

Try this compound too: N.N.O=P(O)(O)O [DAP, di-ammonium hydrogen phosphate]
9,600 CFUs

* * *

Test system: APRY yeast
Assay: APRY yeast challenge in YM broth with equal molar salts
Type: cell-based, Zygosaccharomyces bailii and/or Zygosaccharomyces rouxii
Conditions: 1.54 N salt, day 0
Would you mind telling me the reported APRY yeast level in broth of each entry?

I have this compound here, N.N.O=P(O)(O)O [DAP, di-ammonium hydrogen phosphate] , and I need its recorded APRY yeast level in broth.
6,000 CFUs

Please give the result for [Cl-].[Na+] [NaCl, sodium chloride] too.
13,200 CFUs

Next up: [Cl-].[K+] [KCl, potassium chloride]
13,800 CFUs

Quick one: Cl.N [NH4Cl, ammonium chloride]
10,900 CFUs

* * *

For each entry below, report its APRY yeast level in broth value.
System: APRY yeast
Assay: APRY yeast challenge in YM broth with equal molar salts
Format: cell-based, Zygosaccharomyces bailii and/or Zygosaccharomyces rouxii
Conditions: 0.51 N salt, day 1

Need APRY yeast level in broth, item N.N.O=P(O)(O)O [DAP, di-ammonium hydrogen phosphate]
324,000 CFUs

How about Cl.N [NH4Cl, ammonium chloride] ?
260,000 CFUs

Similarly, [Cl-].[K+] [KCl, potassium chloride] ?
280,000 CFUs

Try this compound next: [Cl-].[Na+] [NaCl, sodium chloride]
440,000 CFUs
